protocolSummary: UV–vis absorption and fluorescence spectroscopy
Format: physicochemical
protocolConditions: pH 7.4 phosphate buffer, 10% DMSO, 10-15 μM
Quick reference for λmax abs among some compounds
readout: λmax abs (nm)

> print(dat)
                               recordsmiles  endpointunit  readoutnumber
1  COC(=O)c1ccccc1C1=c2cc3c4c(c2Oc2c1ccc1cccc(N)c21)CCC[N+]=4CCC3.[Cl-]            nm            601
2  COC(=O)c1ccccc1-c1c2ccc(=N)cc-2oc2c1ccc1cccc(N)c12.Cl            nm            576
3  COC(=O)c1ccccc1-c1c2ccc(=[N+](C)C)cc-2oc2c1ccc1cccc(OC)c12.[Cl-]            nm            568
4  COC(=O)c1ccccc1C1=c2cc3c4c(c2Oc2c1ccc1cccc(OC)c21)CCC[N+]=4CCC3.[Cl-]            nm            582

---

# key: entry, value: φ (quantum yield)
protocolSummary: UV–vis absorption and fluorescence spectroscopy
Type: physicochemical
protocolConditions: pH 7.4 phosphate buffer, 10% DMSO
readout: φ (quantum yield) (%)

> print(dat)
                                   molecule            readout  readoutnumber
1  COC(=O)c1ccccc1-c1c2ccc(=[N+](C)C)cc-2oc2c1ccc1cccc(OC)c12.[Cl-] [Compound 6]  φ (quantum yield)           9.32
2  COC(=O)c1ccccc1C1=c2cc3c4c(c2Oc2c1ccc1cccc(OC)c21)CCC[N+]=4CCC3.[Cl-] [Compound 12]  φ (quantum yield)          11.38
3  COC(=O)c1ccccc1C1=c2cc3c4c(c2Oc2c1ccc1cccc(N)c21)CCC[N+]=4CCC3.[Cl-] [Compound 13]  φ (quantum yield)           0.66
4  COC(=O)c1ccccc1-c1c2ccc(=N)cc-2oc2c1ccc1cccc(N)c12.Cl [Compound 9]  φ (quantum yield)           0.18

---

protocolSummary: Cell viability by Cell Titer-Blue assay
Format: cell-based
protocolConditions: human, Capan-1 cells
Listing of recorded IC50 at 24 h by entry.
readout: IC50 at 24 h (µM)

> print(dat)
                               recordsmiles  readoutnumber
1  COC(=O)c1ccccc1C1=c2cc3c4c(c2Oc2c1ccc1cccc(N)c21)CCC[N+]=4CCC3.[Cl-]           26.1
2  COC(=O)c1ccccc1C1=c2cc3c4c(c2Oc2c1ccc1cccc(OC)c21)CCC[N+]=4CCC3.[Cl-]           17.8

---

Recorded λmax em for the following compounds
protocolSummary: UV–vis absorption and fluorescence spectroscopy
Assay type: physicochemical
protocolConditions: pH 7.4 phosphate buffer, 10% DMSO
readout: λmax em (nm)

> print(dat)
                                   compound  readout  endpointunit  readoutnumber
1  COC(=O)c1ccccc1C1=c2cc3c4c(c2Oc2c1ccc1cccc(N)c21)CCC[N+]=4CCC3.[Cl-] [Compound 13]  λmax em            nm            740
2  COC(=O)c1ccccc1C1=c2cc3c4c(c2Oc2c1ccc1cccc(OC)c21)CCC[N+]=4CCC3.[Cl-] [Compound 12]  λmax em            nm            622
3  COC(=O)c1ccccc1-c1c2ccc(=[N+](C)C)cc-2oc2c1ccc1cccc(OC)c12.[Cl-] [Compound 6]  λmax em            nm            606
4  COC(=O)c1ccccc1-c1c2ccc(=N)cc-2oc2c1ccc1cccc(N)c12.Cl [Compound 9]  λmax em            nm            760
